The reported measurements were obtained from patent US20160264649A1.

Target: HIV-1 Env of pseudovirus isolate MGRM-G-013 (subtype G) (HIV-1)
Test: cell-based or functional assay
assay.readout: IC50 (µg/mL)

binder="PGT-126 (antibody, V domains shown) VH: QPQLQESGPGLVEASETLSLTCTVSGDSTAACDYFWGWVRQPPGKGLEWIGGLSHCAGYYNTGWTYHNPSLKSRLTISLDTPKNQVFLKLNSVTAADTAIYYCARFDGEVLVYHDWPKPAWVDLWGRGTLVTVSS VL: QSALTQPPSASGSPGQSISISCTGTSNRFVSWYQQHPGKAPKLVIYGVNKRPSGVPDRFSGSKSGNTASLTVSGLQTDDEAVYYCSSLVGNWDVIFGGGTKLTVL" censor_symbol== recorded_number=48.8
binder="PGT-131 (antibody, V domains shown) VH: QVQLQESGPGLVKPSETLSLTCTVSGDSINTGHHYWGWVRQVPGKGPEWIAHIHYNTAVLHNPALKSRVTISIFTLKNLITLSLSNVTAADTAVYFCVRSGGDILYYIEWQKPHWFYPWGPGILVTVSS VL: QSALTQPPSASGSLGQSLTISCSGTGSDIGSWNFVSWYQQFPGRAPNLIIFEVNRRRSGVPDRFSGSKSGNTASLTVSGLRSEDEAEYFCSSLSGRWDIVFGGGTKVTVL" censor_symbol=> recorded_number=50
binder="PGT-130 (antibody, V domains shown) VH: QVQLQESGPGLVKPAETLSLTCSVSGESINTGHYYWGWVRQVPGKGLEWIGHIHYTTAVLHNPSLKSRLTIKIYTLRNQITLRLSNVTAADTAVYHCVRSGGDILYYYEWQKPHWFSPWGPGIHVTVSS VL: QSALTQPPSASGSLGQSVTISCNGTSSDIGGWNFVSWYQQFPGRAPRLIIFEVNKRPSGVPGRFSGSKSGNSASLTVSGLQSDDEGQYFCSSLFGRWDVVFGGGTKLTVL" censor_symbol=> recorded_number=50
binder="PGT-123 (antibody, V domains shown) VH: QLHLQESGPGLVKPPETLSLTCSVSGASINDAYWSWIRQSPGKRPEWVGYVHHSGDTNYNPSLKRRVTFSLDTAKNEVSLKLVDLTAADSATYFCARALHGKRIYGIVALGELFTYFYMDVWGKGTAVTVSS VL: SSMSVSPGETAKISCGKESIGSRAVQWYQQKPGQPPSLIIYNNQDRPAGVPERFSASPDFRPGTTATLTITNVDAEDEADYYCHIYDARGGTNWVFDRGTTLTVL" censor_symbol== recorded_number=3.97
binder="PGT-136 (antibody, V domains shown) VH: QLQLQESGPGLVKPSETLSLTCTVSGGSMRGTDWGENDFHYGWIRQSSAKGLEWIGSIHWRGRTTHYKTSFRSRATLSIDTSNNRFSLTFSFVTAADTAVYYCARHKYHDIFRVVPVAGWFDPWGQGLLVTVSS VL: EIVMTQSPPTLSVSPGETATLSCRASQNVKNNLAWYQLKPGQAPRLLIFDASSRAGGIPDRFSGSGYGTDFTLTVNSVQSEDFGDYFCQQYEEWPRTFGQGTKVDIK" censor_symbol=> recorded_number=50
binder="PGT-127 (antibody, V domains shown) VH: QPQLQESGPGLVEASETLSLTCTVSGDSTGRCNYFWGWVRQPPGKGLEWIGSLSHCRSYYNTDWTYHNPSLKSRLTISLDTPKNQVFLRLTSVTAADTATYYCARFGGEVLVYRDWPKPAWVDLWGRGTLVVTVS VL: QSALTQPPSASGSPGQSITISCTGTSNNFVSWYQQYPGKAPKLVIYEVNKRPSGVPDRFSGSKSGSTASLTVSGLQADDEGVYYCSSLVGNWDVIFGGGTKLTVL" censor_symbol== recorded_number=7.7
binder="PGT-125 (antibody, V domains shown) VH: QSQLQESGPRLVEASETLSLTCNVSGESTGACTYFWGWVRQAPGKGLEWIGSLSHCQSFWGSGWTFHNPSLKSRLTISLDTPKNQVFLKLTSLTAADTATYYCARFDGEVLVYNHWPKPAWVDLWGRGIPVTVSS VL: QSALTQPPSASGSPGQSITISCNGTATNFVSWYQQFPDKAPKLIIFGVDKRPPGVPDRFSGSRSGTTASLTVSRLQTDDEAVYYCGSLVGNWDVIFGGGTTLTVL" censor_symbol=> recorded_number=50
binder="PGT-137 (antibody, V domains shown) VH: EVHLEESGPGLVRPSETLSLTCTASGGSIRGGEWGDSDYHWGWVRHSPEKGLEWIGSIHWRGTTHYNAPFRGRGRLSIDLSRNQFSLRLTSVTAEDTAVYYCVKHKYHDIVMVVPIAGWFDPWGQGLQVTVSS VL: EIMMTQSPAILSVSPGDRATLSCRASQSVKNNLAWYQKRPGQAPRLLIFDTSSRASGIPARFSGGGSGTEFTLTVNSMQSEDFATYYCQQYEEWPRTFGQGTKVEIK" censor_symbol=> recorded_number=50
binder="PGT-128 (antibody, V domains shown) VH: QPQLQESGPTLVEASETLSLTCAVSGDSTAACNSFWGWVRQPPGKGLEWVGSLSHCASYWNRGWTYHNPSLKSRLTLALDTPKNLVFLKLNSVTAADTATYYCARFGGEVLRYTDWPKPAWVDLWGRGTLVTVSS VL: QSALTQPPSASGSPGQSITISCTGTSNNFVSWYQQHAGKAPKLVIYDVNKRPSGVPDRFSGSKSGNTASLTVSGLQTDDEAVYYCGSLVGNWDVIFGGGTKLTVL" censor_symbol== recorded_number=0.995
binder="PGT-135 (antibody, V domains shown) VH: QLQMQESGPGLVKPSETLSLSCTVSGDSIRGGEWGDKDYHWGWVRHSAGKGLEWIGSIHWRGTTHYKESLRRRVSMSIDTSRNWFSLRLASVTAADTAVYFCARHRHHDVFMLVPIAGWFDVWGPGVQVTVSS VL: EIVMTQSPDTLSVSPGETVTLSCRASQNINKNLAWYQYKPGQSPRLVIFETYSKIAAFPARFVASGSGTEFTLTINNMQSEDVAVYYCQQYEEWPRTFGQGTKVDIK" censor_symbol=> recorded_number=50
